# credit: patent EP4786492A1

experimental-system: monkey DLL3 on CHO-K1-cyno DLL3 cells (cynomolgus monkey)
Sequence (chain, as listed by the source limits assumed): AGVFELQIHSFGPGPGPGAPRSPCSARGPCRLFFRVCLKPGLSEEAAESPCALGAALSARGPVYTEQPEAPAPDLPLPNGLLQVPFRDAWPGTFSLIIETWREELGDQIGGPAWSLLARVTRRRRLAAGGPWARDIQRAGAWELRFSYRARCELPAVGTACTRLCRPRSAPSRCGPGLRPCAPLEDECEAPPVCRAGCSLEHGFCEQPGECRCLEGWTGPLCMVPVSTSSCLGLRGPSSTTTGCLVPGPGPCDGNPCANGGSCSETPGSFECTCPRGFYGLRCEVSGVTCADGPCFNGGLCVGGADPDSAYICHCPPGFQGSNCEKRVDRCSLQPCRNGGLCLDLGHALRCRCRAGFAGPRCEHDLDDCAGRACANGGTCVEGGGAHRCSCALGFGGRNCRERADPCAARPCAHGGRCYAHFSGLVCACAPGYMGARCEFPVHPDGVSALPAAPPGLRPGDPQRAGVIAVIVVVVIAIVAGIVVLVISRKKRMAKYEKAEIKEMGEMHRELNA
protocol: FACS, CHO-K1-cyno DLL3 cells, 0.16 nM antibody
experimental-readout: MFI (MFI)
All answers are understood in MFI, so give the number only.

Solved cases (2 shown):
Hab009VL2aVH1-hFc (scFv, part only; not given: VL-VH linker and human IgG1 Fc, V domains shown, not shown: another chain or arm of the molecule; a dimerising Fc or GST; small tags and cut ends) VL: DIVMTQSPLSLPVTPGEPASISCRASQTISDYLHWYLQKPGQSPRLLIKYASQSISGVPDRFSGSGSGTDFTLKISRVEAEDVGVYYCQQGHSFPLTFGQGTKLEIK VH: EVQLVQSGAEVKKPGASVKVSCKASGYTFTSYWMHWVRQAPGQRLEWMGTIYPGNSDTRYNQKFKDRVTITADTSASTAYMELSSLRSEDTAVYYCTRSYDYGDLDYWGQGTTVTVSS
13700
Hab009VL3aVH1-hFc (scFv, part only; not given: VL-VH linker and human IgG1 Fc, V domains shown, not shown: another chain or arm of the molecule; a dimerising Fc or GST; small tags and cut ends) VL: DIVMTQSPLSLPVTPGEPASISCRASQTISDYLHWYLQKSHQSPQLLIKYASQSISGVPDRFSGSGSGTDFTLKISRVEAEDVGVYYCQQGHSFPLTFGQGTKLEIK VH: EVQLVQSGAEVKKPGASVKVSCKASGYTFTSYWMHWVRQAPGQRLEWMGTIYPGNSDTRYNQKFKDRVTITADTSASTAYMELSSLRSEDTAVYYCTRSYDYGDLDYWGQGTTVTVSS
10600

Lookup: Please report the recorded MFI for Hab006VL1VH4-hFc (scFv, part only; not given: VL-VH linker and human IgG1 Fc, V domains shown, not shown: another chain or arm of the molecule; a dimerising Fc or GST; small tags and cut ends) VL: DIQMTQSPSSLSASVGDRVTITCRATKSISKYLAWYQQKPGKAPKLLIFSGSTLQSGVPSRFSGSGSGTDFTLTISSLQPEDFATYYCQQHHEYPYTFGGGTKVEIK VH: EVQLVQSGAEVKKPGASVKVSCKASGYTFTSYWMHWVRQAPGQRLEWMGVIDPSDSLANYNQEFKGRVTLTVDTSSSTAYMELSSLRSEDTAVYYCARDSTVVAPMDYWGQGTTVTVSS .
Found: 5000

Lookup: Please report the recorded MFI for Hab015VL4VH1a-hFc (scFv, part only; not given: scFv linker and human IgG1 Fc, V domains shown, not shown: another chain or arm of the molecule; a dimerising Fc or GST; small tags and cut ends) VL: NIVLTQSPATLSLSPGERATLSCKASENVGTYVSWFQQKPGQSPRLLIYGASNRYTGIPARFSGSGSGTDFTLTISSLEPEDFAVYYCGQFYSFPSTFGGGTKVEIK VH: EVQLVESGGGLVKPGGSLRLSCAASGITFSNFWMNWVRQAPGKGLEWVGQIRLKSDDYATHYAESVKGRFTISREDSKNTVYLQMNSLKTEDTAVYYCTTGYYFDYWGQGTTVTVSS .
Found: 1240

Lookup: Please report the recorded MFI for Hab006VL4VH2-hFc (scFv, part only; not given: scFv linker and human IgG1 Fc, V domains shown, not shown: another chain or arm of the molecule; a dimerising Fc or GST; small tags and cut ends) VL: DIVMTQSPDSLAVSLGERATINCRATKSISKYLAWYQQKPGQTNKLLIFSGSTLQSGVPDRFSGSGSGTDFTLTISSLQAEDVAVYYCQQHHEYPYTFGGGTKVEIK VH: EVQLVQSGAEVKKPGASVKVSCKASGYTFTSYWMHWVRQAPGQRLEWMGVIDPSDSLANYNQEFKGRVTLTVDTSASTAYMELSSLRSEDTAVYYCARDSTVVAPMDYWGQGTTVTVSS .
Found: 3970
